Test system: MRC-5 cells
Test: Host cell cytotoxicity in MRC-5 cells
Type: cell-based, human
Settings: CSV supplement; decimal comma
Measurement type: MRC-5 cells Human Lung Fibroblast Cells (cytotoxicity)

CC(C)(C)OC(=O)N[C@H]1Cc2ccc(cc2)Oc2ccc(cc2NC(=O)c2ccccn2)C(=O)CNC(=O)[C@@H](Cc2ccccc2)NC1=O | >64 µM
CC(C)(C)OC(=O)N[C@H]1Cc2ccc(cc2)Oc2ccc(cc2NC(=O)c2ccccn2)C(=O)CNC(=O)[C@H](c2ccccc2)NC1=O | >64 µM
CC(C)(C)OC(=O)N[C@H]1CCc2ccc(cc2)Oc2ccc(cc2NC(=O)c2ccccn2)C(=O)CNC(=O)[C@H](Cc2ccccc2)NC1=O | >64 µM
CC(C)(C)OC(=O)N[C@H]1Cc2ccc(cc2)Oc2ccc(cc2NC(=O)c2ccccn2)CCNC(=O)[C@H](Cc2ccccc2)NC1=O | 45,8 µM
